assay: Binding affinity against c-Src tyrosine kinase SH2 domain expressed as ratio of IC50 of test compound over IC50 of AcYEEIE
Square brackets hold non-standard residues; d marks the D form. Peptide text beside a SMILES is read from it. pY = N[C@@H](Cc1ccc(OP(=O)(O)O)cc1)C(=O)O; Ahp = NCCCCCCC(=O)O
REPORTED METRIC: Ratio

>  <COMPOUND>
CC(=O)N[C@@H](Cc1ccc(OP(=O)(O)O)cc1)C(=O)N[C@@H](CCC(=O)O)C(=O)NCCCCCCC(N)=O (Ac-[pY]-Glu-[Ahp]-NH2)

>  <Ratio>
115

$$$$
>  <COMPOUND>
CCCCCN(CCCCC)C(=O)[C@H](CCC(=O)O)NC(=O)[C@H](Cc1ccc(OP(=O)(O)O)cc1)NC(=O)c1ccc(Cl)cc1

>  <Ratio>
39

$$$$
>  <COMPOUND>
CCCCCN(CCCCC)C(=O)[C@H](CCC(=O)O)NC(=O)[C@H](Cc1ccc(OP(=O)(O)O)cc1)NC(=O)Nc1ccc(N)cc1

>  <Ratio>
26.9

$$$$
>  <COMPOUND>
CCCCCN(CCCCC)C(=O)[C@H](CCC(=O)O)NC(=O)[C@H](Cc1ccc(OP(=O)(O)O)cc1)NC(=O)Cc1ccc(CN)cc1

>  <Ratio>
92.1

$$$$
>  <COMPOUND>
CCCCCN(CCCCC)C(=O)[C@H](CCC(=O)O)NC(=O)[C@H](Cc1ccc(OP(=O)(O)O)cc1)NC(=O)CCc1ccc(O)cc1

>  <Ratio>
26.7

$$$$
>  <COMPOUND>
CCCCCN(CCCCC)C(=O)[C@H](CCC(=O)O)NC(=O)[C@H](Cc1ccc(OP(=O)(O)O)cc1)NC(=O)c1ccc([N+](=O)[O-])cc1

>  <Ratio>
5.7

$$$$
>  <COMPOUND>
CCCCCN(CCCCC)C(=O)[C@H](CCC(=O)O)NC(=O)[C@H](Cc1ccc(OP(=O)(O)O)cc1)NC(=O)Nc1ccc(OC)cc1

>  <Ratio>
13.5

$$$$
>  <COMPOUND>
CCCCCN(CCCCC)C(=O)[C@H](CCC(=O)O)NC(=O)[C@H](Cc1ccc(OP(=O)(O)O)cc1)NC(=O)CCCc1ccccc1

>  <Ratio>
27.2

$$$$
>  <COMPOUND>
COc1ccc2[nH]cc(CCNC(=O)[C@H](CCC(=O)O)NC(=O)[C@H](Cc3ccc(OP(=O)(O)O)cc3)NC(C)=O)c2c1

>  <Ratio>
29.7

$$$$
>  <COMPOUND>
CC(=O)N[C@@H](Cc1ccc(OP(=O)(O)O)cc1)C(=O)N[C@@H](CCC(=O)O)C(=O)NCCc1c[nH]c2ccc(O)cc12

>  <Ratio>
31.5

$$$$

a. CC(=O)N[C@@H](Cc1ccc(OP(=O)(O)O)cc1)C(=O)N[C@@H](CCC(=O)O)C(=O)N(C)CCCCCCCO
b. CCCCCN(CCCCC)C(=O)[C@H](CCSC)NC(=O)[C@H](Cc1ccc(OP(=O)(O)O)cc1)NC(C)=O
c. CCCCCN(CCC(=O)OCC)C(=O)[C@H](CCC(=O)O)NC(=O)[C@H](Cc1ccc(OP(=O)(O)O)cc1)NC(C)=O
d. CC(=O)N[C@@H](Cc1ccc(OP(=O)(O)O)cc1)C(=O)N[C@@H](CCC(=O)O)C(N)=O (Ac-[pY]-Glu-NH2)
Query: Ordering criterion: Ratio; begin with the maximum. Enter labels, ranked according to the request.
Result: d, c, b, a
(d: 200, c: 26, b: 16.5, a: 3.6)
